# protocol-details: differential killing of epithelial or mesenchymal cells, primary screen, imaging, PC-3E GFP, TEM4-18 mCherry, co-culture (AID 1345086);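 also: cells exposed to compound for 72 h before imaging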
# condition-set: imaging cell counts, measured here: mesenchymal TEM4-18 mCherry cell survival, at 1 µM
assay-metric: normalised cell number

> print(dat)
                                   compound  observed.measurement
1  CC(=O)OC1CC2CCC1(C)C2(C)C (stereo unspecified)                  0.94
2               C[C@@H]1Cc2cccc(O)c2C(=O)O1                  0.85

Provide the reported normalised cell number of each entry below, same order.
1. NC(=O)C[C@H](NC(=O)OCc1ccccc1)C(=O)O
2. COC1=CC(=O)OC1(O)C(C)C (stereo unspecified)
3. O=c1c(O)c(-c2ccc(O)c(O)c2)oc2c(O[C@@H]3O[C@H](CO)[C@H](O)[C@@H](O)[C@H]3O)c(O)cc(O)c12
4. CC(=O)O[C@@H]1CC2C(C)(C)C(=O)C3OC3[C@]2(C)C2CC[C@@]3(C)[C@H](c4ccoc4)OC(=O)C4OC43[C@@]21C (stereo partly specified)
5. CNC[C@@H](O)c1ccc(O)c(O)c1
6. C[C@H](CCC(=O)O)[C@H]1CCC2C3C(CC[C@@]21C)[C@@]1(C)CC[C@@H](O)C[C@H]1C[C@@H]3O (stereo partly specified)
7. Cc1c(O)c(=O)ccn1C

1. 1.08
2. 0.89
3. 1.01
4. 1.05
5. 1.5
6. 1.08
7. 0.95

Provide the reported normalised cell number of each entry below, same order.
1. O=C1CC(c2ccc(O)cc2)Oc2ccccc21 (stereo unspecified)
2. COC(=O)C[C@H]1C(C)(C)C(=O)[C@@H]2CC3=C4CC(=O)O[C@@H](c5ccoc5)[C@]4(C)CCC3C1(C)C2=O (stereo partly specified)

1.08
0.78

* * *

# protocol-details: differential killing of epithelial or mesenchymal cells, primary screen, imaging, PC-3E GFP, TEM4-18 mCherry, co-culture (AID 1345086);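 also: cells exposed to compound for 72 h before imaging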
# condition-set: imaging cell counts, measured here: mesenchymal TEM4-18 mCherry cell survival, at 1 µM
Kindly state normalised cell number for each of the entries shown.

Some solved cases for reference:
molecule	normalised cell number
C#C[C@]1(O)CCC2C3CCC4=Cc5oncc5C[C@]4(C)C3CC[C@@]21C (some centres undefined)	1.26
COc1cc2c(cc1OC)-c1c(oc3cc(O)cc(O)c3c1=O)CO2	1.09
CCC[C@@H]1Cc2cc3c(-c4c(O)cc(O)c5c(O)c6c(cc45)C[C@@H](CCC)OC6=O)c(O)cc(O)c3c(O)c2C(=O)O1	1.02
NCc1ccccc1CC(=O)NC1C(=O)N2C(C(=O)O)=C(CSc3nnnn3CC(=O)O)CSC12 (centres undefined)	0.98
C/C(=C\CO)CC[C@H](C)CCC[C@H](C)CCCC(C)C	1.09

Provide the reported normalised cell number of each entry below, same order.
1. OC[C@H]1OC([S-])[C@H](O)[C@@H](O)[C@@H]1O.[Au+] (some centres undefined)
2. COC(=O)c1cn(C2CC2)c2c(OC)c(F)c(F)cc2c1=O
3. COC(=O)C1O[C@H](Sc2ccccc2)[C@@H](OC(=O)c2ccccc2)[C@@H](OC(=O)c2ccccc2)C1O (some centres undefined)
4. NCC1CCCCC1CC(=O)O (centres undefined)
5. C/C=C/[C@@H]1CC[C@@H]2C[C@H](C)CC[C@H]2[C@]1(C)C(=O)[C@H]1OC(=O)[C@@H](CO)N(C)C1=O

1: 0.95; 2: 1; 3: 1; 4: 1.02; 5: 1.15

Provide the reported normalised cell number of each entry below, same order.
1. CCC(=O)OCC(=O)C1(OC(=O)CC)C(C)CC2C3CCC4=CC(=O)C=CC4(C)C3(Cl)C(O)CC21C (centres undefined)
2. N[C@@H](CC(=O)N1CCn2c(nnc2C(F)(F)F)C1)Cc1cc(F)c(F)cc1F
3. CCC(CCC(C)[C@H]1CCC2C3CC=C4C[C@@H](OC(C)=O)CC[C@]4(C)C3CC[C@@]21C)C(C)C (some centres undefined)

1. 1.29
2. 1.18
3. 1.03

Provide the reported normalised cell number of each entry below, same order.
1. CC(=O)OCC(=O)[C@@]1(O)CCC2C3CCC4=CC(=O)C=C[C@]4(C)[C@@]3(Cl)[C@@H](Cl)C[C@@]21C (some centres undefined)
2. O=C(O)Cc1cc(I)c(Oc2ccc(O)c(I)c2)c(I)c1
3. COc1c(O)cc2c(c1O)C(=O)O[C@@H](C)[C@@H]2O
4. COc1cc(O)c2c(c1C)C(C(C)=O)COC2=O (centres undefined)

1.2
1.08
1.02
0.28

Provide the reported normalised cell number of each entry below, same order.
1. CO/N=C(/C(=O)NC1C(=O)N2C(C(=O)O)=C(COC(N)=O)CSC12)c1ccco1 (centres undefined)
2. CC(=O)O[C@H]1CC[C@@]2(C)C(C[C@@H](OC(C)=O)[C@]3(C)C2CC[C@@]2(C)[C@H](c4ccoc4)OC(=O)[C@H]4O[C@]423)C1(C)C (some centres undefined)

[0.97, 1.12]
